experiment: Nitric oxide release in PBS at pH 7.4 in 37 degC after 1.5 hrs; type: functional; parameters: concentration or dose not given beside the values
Entries whose Activity is below 4% take 1.0; entries at or above 4% take 0.0.

Previously resolved entries follow.
Smiles Entry: CN(CCO)/[N+]([O-])=N/[O-].[Na+]
Assigned Category: 0.0
--
Smiles Entry: O=[N+]([O-])OCC(CO[N+](=O)[O-])O[N+](=O)[O-]
Assigned Category: 1.0
--
Smiles Entry: COc1ccc(/C(=C\c2ccc(S(C)(=O)=O)cc2)C(=O)OCCO[N+](=O)[O-])cc1
Assigned Category: 1.0
--
Smiles Entry: CC(=O)OCO/N=[N+](\[O-])N(C)CCOC(=O)/C(=C/c1ccc(S(C)(=O)=O)cc1)c1ccccc1
Assigned Category: 0.0
--
Smiles Entry: CS(=O)(=O)c1ccc(/C=C(/C(=O)OCCO[N+](=O)[O-])c2ccc(Br)cc2)cc1
Assigned Category: 1.0

We now examine a further compound.
Could you please tell me whether Activity recorded for `CC(=O)OCO/N=[N+](\[O-])N(C)CCOC(=O)/C(=C/c1ccc(S(C)(=O)=O)cc1)c1ccc(F)cc1` is less than 4%?
1.0
